Molecular target: PD-1/PD-L1 interaction (Homo sapiens, UniProt Q9NZQ7)
Construct: expressed in transfected cells; host or cells: CHO cells (aAPC-PD-L1) co-cultured with Jurkat cells overexpressing PD-1 and an NFAT-luciferase reporter
Sequence (Q9NZQ7 19-290): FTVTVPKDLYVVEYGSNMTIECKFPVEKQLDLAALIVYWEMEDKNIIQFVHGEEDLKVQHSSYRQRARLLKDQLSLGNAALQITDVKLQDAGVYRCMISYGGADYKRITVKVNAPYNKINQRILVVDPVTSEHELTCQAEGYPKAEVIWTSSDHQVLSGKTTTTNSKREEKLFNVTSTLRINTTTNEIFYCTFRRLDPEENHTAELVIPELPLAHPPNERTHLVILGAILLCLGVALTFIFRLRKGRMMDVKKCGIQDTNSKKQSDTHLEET
Assay: PD-1/PD-L1 NFAT reporter co-culture assay
Type: cell-based
Settings: Jurkat PD-1 NFAT-luciferase cells co-cultured with aAPC-PD-L1 CHO cells, 6 hrs at 37° C.; read-out: EC50 NFAT Luciferase
Reported endpoint: pEC50
Please express pEC50 as -log10 of the molar concentration.

INSERT INTO assay_data (smi, reported_endpoint, reported) VALUES
  ('COc1cc(-c2cccc(-c3cccc(-c4ccc(CNC[C@@H]5CCC(=O)N5)c(OC)c4)c3Br)c2Br)ccc1CNC[C@@H]1CCC(=O)N1', 'pEC50', 6.75),
  ('COc1nc(OCc2cccc(-c3cccc(COc4nc(OC)c(CNC[C@@H](O)CC(=O)O)cc4Br)c3Cl)c2Cl)ccc1CNC[C@@H](O)CC(=O)O', 'pEC50', 6.29),
  ('Cc1c(COc2nc(OCc3cncc(S(C)(=O)=O)c3)c(CNC[C@@H](O)CC(=O)O)cc2Br)cccc1-c1cccc(COc2nc(OCc3cncc(S(C)(=O)=O)c3)c(CNC[C@@H](O)CC(=O)O)cc2Br)c1C', 'pEC50', 6.91),
  ('COc1nc(-c2cccc(-c3cccc(-c4ccc5c(CNC[C@H]6CCC(=O)N6)cn(C)c5c4)c3Cl)c2Cl)ccc1CNC[C@H]1CCC(=O)N1', 'pEC50', 6.89);

### Prompt # query: pEC50 of entry `COc1nc(Oc2cccc(-c3cccc(-c4ccc(CNC[C@@H]5CCC(=O)N5)c(OC)n4)c3Cl)c2Cl)ccc1CNC[C@@H]1CCC(=O)N1`
### Response 6.55

### Prompt Next entry: `COc1nc(O[C@H]2CCc3c(-c4cccc(-c5ccc(OCCNCCO)cc5)c4C)cccc32)ccc1CNCC(=O)O`
### Response 4.88
